Values were extracted from PubChem BioAssay.

- ASSAY SUMMARY: resazurin metabolic signal in HepG2 cells – cell-based, resazurin fluorescence, 24 h, PK04 Diversity Set, profiling panel (AID 1172); further: test concentration not given here
- TEST CONTEXT: HepG2 viability, higher = more signal
Labelling field: enter satisfied if recorded z-score is less than -0.5. Enter not satisfied if it equals or exceeds that cut-off.

COMPOUND: COCCOC(=O)N1C(=O)[C@@]2(c3cc(C#CCCO)ccc31)[C@H](c1ccc(O)cc1)N1[C@H](c3ccccc3)[C@H](c3ccccc3)OC(=O)[C@H]1[C@@H]2C(=O)N1CCN(c2ncccn2)CC1
CAT: not satisfied
//
COMPOUND: COc1cc(OC)c(C(O)C2C=CC3C(=O)NC(=O)C3N2Nc2ccccn2)cc1Br (configuration not stated)
CAT: not satisfied
//
COMPOUND: CS(=O)(=O)CCOC(=O)C1=CC(CCCO)=CC(c2ccc(CN3CCCC3)cc2)N(Cc2cccc(OC(F)(F)F)c2)C=C1C(=O)OCCS(C)(=O)=O (configuration not stated)
CAT: not satisfied
//
COMPOUND: O=C1NC(=O)C2C1C=CC(C(O)c1ccc(-c3ccccc3)s1)N2Nc1ccc(Cl)cc1Cl (configuration not stated)
CAT: satisfied
//
COMPOUND: CC=CC(O)C1C=CC2C(=O)N(C)C(=O)C2N1N(c1ccccc1)c1ccccc1 (configuration not stated)
CAT: not satisfied
//
COMPOUND: COc1ccc([Si](C)(C)[C@H]2[C@H](CCO)O[C@@]3(C(=O)N(Cc4ccccc4)c4ccc(N5CCCCC5=O)cc43)[C@@H]2C)cc1
CAT: satisfied
